# assay_explanation: decrease of insulin promoter-GFP reporter – imaging, high-content screening, mouse beta cells (AID 1628)
# cond: MIN6 insulin promoter GFP reporter, at 5 µM, stronger effect = lower value
Among all 190,000 compounds or so, about 930 (0.49%) were called active. The list shows a part of the results. Potency and affinity values are given separately.
I'd appreciate it if you marked entries TRUE when z-score is lower than 0.8 and FALSE when it is not.

>  <structure_smiles>
CS(=O)(=O)Nc1ccc(C(=O)Nc2ccccc2C(=O)N2CCCC2)cc1

>  <discrete_label>
TRUE

$$$$
>  <structure_smiles>
CCNc1c2c3c(cccc3n(C)c1=O)C(=O)c1ccccc1-2

>  <discrete_label>
FALSE

$$$$
>  <structure_smiles>
CCn1c(SCC(=O)Nc2cc(OC)c(OC)c(OC)c2)nnc1-c1cccs1

>  <discrete_label>
TRUE

$$$$
>  <structure_smiles>
COc1ccc(/C(O)=C/c2nc3ccc(C(=O)NCCc4cccc(C)c4)cc3[nH]c2=O)cc1OC

>  <discrete_label>
FALSE

$$$$
>  <structure_smiles>
COc1ccc(NC(=O)CSc2nnc(-c3cccs3)n2C)cc1OC

>  <discrete_label>
FALSE

$$$$
>  <structure_smiles>
Cc1cccc(-n2nnc(C(=O)NCc3ccccc3Cl)c2N)c1

>  <discrete_label>
FALSE

$$$$

Problem: In the record for COC(=O)c1cc2c(-c3ccccc3)c(C)c3ccccn3c-2c1C(=O)OC , is z-score less than 0.8?
Result: FALSE
